# run.description: DPPH radical scavenging activity assay
# Format: biochemical
# test.context: 792.00 ppm; n = 3
# DPPH Clearance rate per entry

{"compound": "COc1cc(C2Oc3cc([C@H]4Oc5cc(O)cc(O)c5C(=O)[C@@H]4O)ccc3OC2CO)ccc1O (stereo partly shown)", "DPPH Clearance rate": "69.85%"}
{"compound": "O=C(O)CCSCCC(=O)O", "DPPH Clearance rate": "64.55%"}
{"compound": "COc1cc(C2Oc3cc([C@H]4Oc5cc(O)cc(O)c5C(=O)[C@@H]4O)ccc3OC2COC(=O)CCSCCC(=O)OCC2Oc3ccc([C@H]4Oc5cc(O)cc(O)c5C(=O)[C@@H]4O)cc3OC2c2ccc(O)c(OC)c2)ccc1O (stereo partly shown)", "DPPH Clearance rate": "87.06%"}
{"compound": "O=C1O[C@H]([C@@H](O)CO)C(O)=C1O", "DPPH Clearance rate": "99.10%"}
